# System: SH-SY5Y
# procedure text: Neuroprotective activity in human SH-SY5Y cells assessed as reduction in hydrogen peroxide-induced cytotoxicity by measuring cell viability level at 10 uM (reference value: 50.7+/- 2.6%)
# Format: functional
measured metric: Activity

Report measured Activity on SH-SY5Y; entry: O=c1cc(-c2ccc(O)c(O)c2)oc2cc(O[C@@H]3O[C@H](CO)[C@@H](O)[C@H](O)[C@H]3O)cc(O)c12 [GALUTEOLIN]
87.6%

Report measured Activity on SH-SY5Y; entry: O=C(/C=C/c1ccc(O)c(O)c1)O[C@@H]1C[C@@](O)(C(=O)O)C[C@@H](O)[C@@H]1OC(=O)[C@@H]1[C@@H](c2ccc(O)c(O)c2)[C@@]2(CO)C=CC(=O)[C@@H]1O2
75.6%

Report measured Activity on SH-SY5Y; entry: O=C(/C=C/c1ccc(O)c(O)c1)O[C@@H]1[C@H](O)C[C@@](O)(C(=O)O)C[C@H]1OC(=O)[C@@H]1[C@@H]2O[C@@](CO)(C=CC2=O)[C@H]1c1ccc(O)c(O)c1
76.7%

Report measured Activity on SH-SY5Y; entry: O=C(/C=C/c1ccc(O)c(O)c1)O[C@@H]1C[C@@](OC(=O)/C=C/c2ccc(O)c(O)c2)(C(=O)O)C[C@@H](O)[C@@H]1O [CYNARIN]
77.2%

Report measured Activity on SH-SY5Y; entry: O=C(/C=C/c1ccc(O)c(O)c1)O[C@@H]1[C@H](O)C[C@@](O)(C(=O)O)C[C@H]1OC(=O)[C@@H]1[C@@H](c2ccc(O)c(O)c2)[C@@]2(CO)C=CC(=O)[C@@H]1O2
78.4%

---

# Test system: SH-SY5Y
# procedure text: Neuroprotective activity in human SH-SY5Y cells assessed as reduction in hydrogen peroxide-induced cytotoxicity by measuring cell viability level at 10 uM (reference value: 50.7+/- 2.6%)
# Format: functional
measured metric: Activity (%)
Report as a plain number; the unit % is understood.

Complete the entry with Activity for CCCC[C@@H]1OC(=O)c2ccccc21 [(3S)-BUTYLPHTHALIDE]
73.9

Complete the entry with Activity for O=C(O)[C@H]1O[C@@H](Oc2cc(O)c3c(=O)cc(-c4ccc(O)c(O)c4)oc3c2)[C@H](O)[C@@H](O)[C@@H]1O
80.9

Complete the entry with Activity for O=C(/C=C/c1ccc(O)c(O)c1)O[C@@H]1[C@H](O)C[C@@](O)(C(=O)O)C[C@H]1OC(=O)/C=C/c1ccc(O)c(O)c1
75.2
